Examples of compounds with documented max activity follow.
assay: compound activity on host-cell Toxoplasma growth – dose response (AID 1259420); settings: Toxoplasma gondii growth in host cells, no IFN-gamma; at 19.5 µM unless noted;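 also: host cells were HeLa; final incubation lasted 72 hours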
Hit rate of the full screen: of about 1,000 compounds, about 250 (25%) were called active. About 31% were inconclusive and are not listed. Not all results are given here. Entries with a potency or affinity are not part of this list.

>  <compound>
COC[C@H](N)C(=O)N1CCC(Cc2nnc(SC)n2C)CC1

>  <max activity>
7.97% [at 0.16 µM] (inactive)

$$$$

Record request: max activity value, item `CCCNC(=O)[C@H]1[C@H](CO)[C@H]2Cn3c(ccc(C4=CCCCC4)c3=O)[C@H]2N1Cc1ccccc1F`
26.7% (inactive)

One more compound: `CC(C)CNC(=O)[C@H]1C[C@H]2CN(Cc3cccc(Cl)c3)C[C@H]1O2`
13.8% [at 0.3 µM] (inactive)

Let us now turn to `O=C(c1cnccn1)N1CC(=O)N2[C@H](C1)[C@H](c1ccc(/C=C/c3ccccc3)cc1)[C@@H]2CO`
11.5% [at 0.16 µM] (inactive)

Subsequent entry: `CCS(=O)(=O)N1[C@H](CO)[C@@H](c2ccc(C#Cc3ccccc3F)cc2)[C@@H]1C#N`
10.1% [at 2.35 µM] (inactive)

Try this compound next: `O=C1N(c2ccccc2)c2ccccc2C1(Cc1ccncc1)Cc1ccncc1`
-9.88% [at 5 µM] (inactive)

###

assay: compound activity on host-cell Toxoplasma growth – dose response (AID 1259420); details: Toxoplasma gondii growth in host cells, no IFN-gamma; at 19.5 µM unless noted;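 also: host cells were HeLa; final incubation lasted 72 hours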
Out of some 1,000 compounds screened, about 250 (25%) were called active. About 31% were inconclusive and are not listed. Only a sample is shown. Entries with a potency or affinity are not part of this list.
test readout: max activity

Known max activity results, listed for orientation:
>  <compound>
CN1[C@@H]2Cn3c(ccc(/C=C/c4ccccc4)c3=O)[C@H]1[C@@H](C(=O)NC1Cc3ccccc3C1)[C@@H]2CO

>  <result value>
-16.6% [at 2.6 µM] (inactive)

$$$$
>  <compound>
CC(C)NC(=O)N1CC(=O)N2[C@@H](CO)[C@H](c3ccc(/C=C/c4ccccc4)cc3)[C@@H]2C1

>  <result value>
-13.4% [at 0.16 µM] (inactive)

$$$$
>  <compound>
O=C(Cc1ccccn1)N1CC(=O)N2[C@H](C1)[C@H](c1ccc(C#CCC3CCCC3)cc1)[C@@H]2CO

>  <result value>
12.6% (inactive)

$$$$
>  <compound>
Cc1ccccc1S(=O)(=O)N1CCCCN2[C@H](CO)[C@H](c3ccc(C#CCN(C)C)cc3)[C@H]2C1

>  <result value>
8.8% (inactive)

$$$$

Need max activity of `Cc1nc(N2CCCC2)nc2c1CCN(S(=O)(=O)c1ccccc1)CC2` , thanks.
-5.81% [at 10 µM] (inactive)

Continue with `O=C(c1ccc(F)cc1)N1CC(=O)N2[C@H](CO)[C@@H](c3ccc(C#CCC4CCCC4)cc3)[C@@H]2C1`
23.3% (inactive)

Same for COc1ccccc1-c1ccc(C2[C@@H]3CN(S(=O)(=O)c4ccc(C)cc4)C[C@H]2N3)cc1 (stereo partly specified)
22.8% (inactive)

What about this compound? CCN(CC)CCOC(=O)C(c1ccccc1)C1CCCCC1 (stereo unspecified)
16.1% [at 10 µM] (inactive)

###

assay: compound activity on host-cell Toxoplasma growth – dose response (AID 1259420); conditions: Toxoplasma gondii growth in host cells, no IFN-gamma; at 19.5 µM unless noted;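 also: host cells were HeLa; final incubation lasted 72 hours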
Among all 1,000 compounds or so, about 250 (25%) were called active. Roughly 31% stayed inconclusive and do not appear here. Not all results are given here. Results with a measured potency or affinity are listed apart.
Below, each entry is listed with its recorded max activity.

Example entries begin here.
>  <molecule>
CC(C)C#Cc1ccc([C@H]2[C@H](CO)N3C(=O)CN(C(=O)NC4CCCC4)C[C@@H]23)cc1

>  <max activity>
-11.2% (inactive)

$$$$
>  <molecule>
CCC[C@@]1(CCc2ccccc2)CC(=O)C([C@H](CC)c2cccc(NS(=O)(=O)c3ccc(C(F)(F)F)cn3)c2)C(=O)O1 (stereo not given in full)

>  <max activity>
6.55% [at 10 µM] (inactive)

$$$$
>  <molecule>
Cc1cccc(-c2ccc(C3[C@@H]4CN(C(=O)Nc5ccc(F)cc5)C[C@H]3N4)cc2)c1 (stereo not given in full)

>  <max activity>
30.6% [at 10 µM] (inactive)

$$$$
>  <molecule>
c1cc(-c2nccn2CCn2ccnc2)ccn1

>  <max activity>
7.6% [at 0.16 µM] (inactive)

$$$$
>  <molecule>
CO[C@H]1CCN(c2ccc(C)nn2)[C@H]1Cc1cnn(C)c1

>  <max activity>
46.8% (inactive)

$$$$
>  <molecule>
O=S(=O)(c1ccc(F)cc1)N1C[C@@H]2N[C@H](C1)C2c1ccc(/C=C/c2ccccc2)cc1 (stereo not given in full)

>  <max activity>
27.1% (inactive)

$$$$

Look up max activity for this molecule: O=C(C1CC1)N1C[C@@H]2N[C@H](C1)C2c1ccc(/C=C/c2ccccc2)cc1 (stereo not given in full)
27.3% (inactive)

Record: `COc1ccccc1C#Cc1ccc([C@@H]2[C@H](CO)N3CCCCN(C(=O)C4CCC4)C[C@@H]23)cc1`
17.3% (inactive)

Thanks! And `CN(C)CCNC(=O)c1ccc2onc(-c3coc(C4CC4)n3)c2c1` ?
24.6% (inactive)

Please answer likewise for `COc1ccccc1C#Cc1ccc([C@@H]2[C@@H](CO)N3CCCCN(C(=O)C4CCC4)C[C@H]23)cc1`
18.4% [at 10 µM] (inactive)

###

assay: compound activity on host-cell Toxoplasma growth – dose response (AID 1259420); settings: Toxoplasma gondii growth in host cells, no IFN-gamma; at 19.5 µM unless noted;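 also: host cells were HeLa; final incubation lasted 72 hours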
The campaign covered roughly 1,000 compounds. About 250 (25%) were called active. About 31% were inconclusive and are not listed. A selection follows. Results with a measured potency or affinity are listed apart.
test readout: max activity

The cases that follow already have their max activity on record.
>  <compound>
CCc1cnc(N2[C@@H](C#N)[C@@H](c3ccc(C4=CCCCC4)cc3)[C@@H]2CO)s1

>  <max activity>
-7.27% (inactive)

$$$$
>  <compound>
CS(=O)(=O)N1CCN(C2CCOCC2)CC(C(=O)O)C1 (stereo not drawn)

>  <max activity>
-14.9% [at 5 µM] (inactive)

$$$$
>  <compound>
CC(C)C#Cc1ccc([C@H]2[C@@H](CO)N3C(=O)CN(C(=O)NC4CCCC4)C[C@H]23)cc1

>  <max activity>
-5.62% [at 10 µM] (inactive)

$$$$
>  <compound>
O=C(Nc1ccccc1)c1ncn2c1CN(CC1CC1)S(=O)(=O)c1ccccc1-2

>  <max activity>
-5.31% [at 1.2 µM] (inactive)

$$$$
>  <compound>
CC(C)CN(C[C@@H](O)[C@H](Cc1ccccc1)NC(=O)O[C@H]1CO[C@H]2OCC[C@H]21)S(=O)(=O)c1ccc(N)cc1

>  <max activity>
6.05% [at 1.2 µM] (inactive)

$$$$

Please look up its max activity: `O=C(C[C@@H]1CC[C@@H]2[C@H](COC[C@H](O)CN2S(=O)(=O)c2ccccc2F)O1)N1CCC(Cc2ccccc2)CC1`
-4.67% [at 0.3 µM] (inactive)

`COCC#Cc1ccc([C@H]2[C@H](CO)N3CCCCN(C(=O)NC4CCCC4)C[C@@H]23)cc1` ?
-13.1% [at 10 µM] (inactive)

Again, but for CN(C)C1CCN(Cc2cccc(C#N)c2)C(C(=O)O)C1 (stereo not drawn)
8.23% (inactive)

Proceed to `O=C(C1CCCCC1)N1[C@@H](CO)[C@@H]2c3ccccc3N(S(=O)(=O)c3ccccc3)C[C@@H]21`
7.57% (inactive)

Lookup O=S(=O)(Cc1ccccc1)N1CC2CN(Cc3cccc(Cl)c3)CC2C1 (stereo not drawn)
19.1% (inactive)

What about `CN(C)C(=O)c1ccc(-c2ccc([C@H]3[C@H](CO)N4C(=O)CN(C(=O)CC5CC5)C[C@@H]34)cc2)cc1` ?
-9.43% [at 0.3 µM] (inactive)

Same question for `CC(C)CCN1Cc2c(C(=O)NC3CCCCC3)ncn2-c2ccccc2S1(=O)=O` please.
17.3% (inactive)

// same read-out, input: FC(F)(F)C1CN(c2cc(-c3ccccc3)nc3ccccc23)CCO1 (stereo not drawn)
-8.74% [at 1.2 µM] (inactive)

And `O=C(C[C@H]1CC[C@H]2[C@@H](COC[C@@H](O)CN2Cc2cc(F)ccc2F)O1)NCc1ccc(Oc2ccccc2)cc1` ?
24% (inactive)

Also check `Cc1ccc(S(=O)(=O)Nc2ccc3c(c2)C(=O)N([C@@H](C)CO)C[C@H](C)[C@H](CN(C)Cc2ccc(C(F)(F)F)cc2)O3)cc1`
18.3% (inactive)

# repeat for Cc1ccc(CN2CC3CN(Cc4cccc(F)c4)CC3C2)s1 (stereo not drawn)
-13.6% [at 1.2 µM] (inactive)

Entry `O=C(C1CCCCC1)N1[C@H](CO)[C@@H]2c3ccccc3N(S(=O)(=O)c3ccccc3)C[C@@H]21` please
10.6% [at 5 µM] (inactive)

Subsequent entry: `Cc1ccccc1-c1ccc([C@H]2[C@@H](CO)N3C(=O)CN(C(=O)c4ccncc4)C[C@H]23)cc1`
-12.2% [at 5 µM] (inactive)

What do we get for `OC[C@H]1[C@H](c2ccc(C#Cc3ccccc3F)cc2)[C@H]2CN(CC3CCOCC3)CCCCN21` ?
7.1% [at 0.16 µM] (inactive)

Please answer likewise for `CN(C)S(=O)(=O)N1C[C@@H]2CN(Cc3ccoc3)CCO[C@H]2C1`
-18.6% (inactive)

// query: `COCC(=O)N1CCC2(CC1)CC1(CCN(CC(C)C)CC1)C(=O)N2C`
-12.4% [at 10 µM] (inactive)

Same thing, different compound: `CC(C)(C)c1nc2ccccc2c2nnc(SCc3ccccn3)n12`
9.04% [at 0.3 µM] (inactive)

Follow-up item: `CN(C)C(=O)c1ccc2nnc3ncn(Cc4ccccc4)c3c2c1`
9.7% [at 2.6 µM] (inactive)
